Biological target: Alpha 2C (Homo sapiens)
Assay: FLIPR assay, intracellular Ca2+ mobilization, alpha 2C
Type: cell-based
Conditions: value in parentheses
MEASUREMENT NAME: Alpha 2C relative efficacy compared to a standard full agonist

Recorded results for 8 molecules are shown here.
CHEMICAL STRUCTURE: Cc1cc(NC2=NCCC2)cc2cc[nH]c12
OBSERVED MEASUREMENT: (0.85)
--
CHEMICAL STRUCTURE: Cc1cccc2c1CC[C@@H]2NC1=NCCC1
OBSERVED MEASUREMENT: (0.94)
--
CHEMICAL STRUCTURE: Brc1ccc(NC2=NCCC2)c2ccccc12
OBSERVED MEASUREMENT: (0.85)
--
CHEMICAL STRUCTURE: Cc1c(NC2=NCCC2)ccc2cccnc12
OBSERVED MEASUREMENT: (1)
--
CHEMICAL STRUCTURE: Cc1c(/N=C2\CCCN2)cnc2[nH]ccc12
OBSERVED MEASUREMENT: (0.9)
--
CHEMICAL STRUCTURE: Cc1c(NC2=NCCC2)ccc2nccnc12
OBSERVED MEASUREMENT: (0.9)
--
CHEMICAL STRUCTURE: Cc1ccc2ccccc2c1NC1=NCCC1
OBSERVED MEASUREMENT: (0.85)
--
CHEMICAL STRUCTURE: Clc1c(NC2=NCCC2)ccc2[nH]cnc12
OBSERVED MEASUREMENT: (1)

# batch: return Alpha 2C relative efficacy compared to a standard full agonist for each of the 2 molecules below
1. c1cc2cc(NC3=NCCC3)ccc2[nH]1
2. Brc1c(NC2=NCCC2)ccc2scnc12

(0.9)
(.92)

// for each molecule below, give its Alpha 2C relative efficacy compared to a standard full agonist
1. c1cc2c(c(NC3=NCCC3)c1)CCC2
2. Brc1c(NC2=NCCC2)ccc2[nH]cnc12

(0.85)
(0.94)

* * *

Molecular target: Alpha 2B (Homo sapiens, UniProt P18089)
Test: FLIPR assay, intracellular Ca2+ mobilization, alpha 2B
Format: cell-based
Conditions: FLIPR, agonist; read-out: Alpha 2B Potency (EC50)
Sequence (P18089 whole entry): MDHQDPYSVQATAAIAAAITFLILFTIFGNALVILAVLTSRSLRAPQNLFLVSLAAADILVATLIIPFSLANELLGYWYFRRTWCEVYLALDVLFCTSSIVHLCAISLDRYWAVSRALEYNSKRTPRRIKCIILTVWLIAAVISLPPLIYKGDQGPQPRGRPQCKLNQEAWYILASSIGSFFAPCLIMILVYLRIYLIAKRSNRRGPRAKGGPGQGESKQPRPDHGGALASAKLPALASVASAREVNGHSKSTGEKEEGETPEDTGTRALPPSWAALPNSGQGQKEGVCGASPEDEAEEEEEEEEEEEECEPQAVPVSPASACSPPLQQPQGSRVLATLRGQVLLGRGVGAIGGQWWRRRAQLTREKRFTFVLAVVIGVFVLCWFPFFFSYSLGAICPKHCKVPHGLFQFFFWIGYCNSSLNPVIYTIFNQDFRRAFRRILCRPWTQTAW
MEASUREMENT NAME: log10(EC50) (log10 of the value in nM)
Please keep in mind that the values are log10 of EC50 expressed in nM.

CHEMICAL STRUCTURE: c1cc2cc(NC3=NCCC3)ccc2[nH]1
log10(EC50): 1.00
//
CHEMICAL STRUCTURE: c1nc2cc(NC3=NCCC3)ccc2[nH]1
log10(EC50): 2.85
//
CHEMICAL STRUCTURE: Cc1cc(NC2=NCCC2)cc2cc[nH]c12
log10(EC50): 2.15
//
CHEMICAL STRUCTURE: Clc1c(NC2=NCCC2)ccc2[nH]cnc12
log10(EC50): 2.71
//
CHEMICAL STRUCTURE: Brc1c(NC2=NCCC2)ccc2scnc12
log10(EC50): 2.07

List the reported log10(EC50) of each compound below.
1. Clc1ccc(NC2=NCCC2)c2ccccc12
2. c1ccc2c(c1)CCC[C@@H]2NC1=NCCC1
3. c1ccc2c(NC3=NCCC3)cccc2c1
4. Cc1c(NC2=NCCC2)ccc2[nH]ccc12

1: 3.03; 2: 2.21; 3: 1.48; 4: 1.59

Give one value of log10(EC50) per listed compound.
1. Brc1ccc(NC2=NCCC2)c2ccccc12
2. Clc1c(NC2=NCCC2)ccc2cccnc12

1: 2.85; 2: 3.02

* * *

Biological target: Alpha 2A (Homo sapiens, UniProt P08913)
Assay: FLIPR assay, intracellular Ca2+ mobilization, alpha 2A
Assay type: cell-based
Conditions: value in parentheses
MEASUREMENT NAME: Alpha 2A relative efficacy compared to a standard full agonist

Answered examples (5):
CHEMICAL STRUCTURE: c1cc(NC2=NCCC2)c2cc[nH]c2c1
SYSTEM NAME: Alpha 2A (Homo sapiens, UniProt P08913)
OBSERVED MEASUREMENT: (0.7)
--
CHEMICAL STRUCTURE: Cc1c(NC2=NCCC2)ccc2[nH]cnc12
SYSTEM NAME: Alpha 2A (Homo sapiens, UniProt P08913)
OBSERVED MEASUREMENT: (1)
--
CHEMICAL STRUCTURE: Brc1c(NC2=NCCC2)ccc2scnc12
SYSTEM NAME: Alpha 2A (Homo sapiens, UniProt P08913)
OBSERVED MEASUREMENT: (.98)
--
CHEMICAL STRUCTURE: c1ccc2c(NC3=NCCC3)cccc2c1
SYSTEM NAME: Alpha 2A (Homo sapiens, UniProt P08913)
OBSERVED MEASUREMENT: (0.81)
--
CHEMICAL STRUCTURE: Clc1c(NC2=NCCC2)ccc2cccnc12
SYSTEM NAME: Alpha 2A (Homo sapiens, UniProt P08913)
OBSERVED MEASUREMENT: (1)

Provide reported Alpha 2A relative efficacy compared to a standard full agonist for each item, in the same order as listed.
1. Brc1c(NC2=NCCC2)ccc2[nH]cnc12
2. Clc1c(NC2=NCCC2)ccc2[nH]cnc12
3. Cc1c(NC2=NCCC2)ccc2cccnc12
4. Brc1c(NC2=NCCC2)ccc2nccnc12

1. (1)
2. (0.98)
3. (0.98)
4. (0.81)

* * *

Target: Alpha 2B (Homo sapiens, UniProt P18089)
Assay: FLIPR assay, intracellular Ca2+ mobilization, alpha 2B
Assay type: cell-based
Sequence (P18089 whole entry, looked up): as the sequence (P18089 whole entry) above
MEASUREMENT NAME: pEC50
Numbers only, as −log10 of the molar value.

# query: pEC50 of entry "c1cc2c(cc1NC1=NCCC1)CCCC2"
6.53

* * *

Provide the recorded EC50 for the entries that follow.
Biological target: UniProtKB P08913
Experiment: FLIPR assay, intracellular Ca2+ mobilization, alpha 2A
Details: agonist, read-out: Alpha 2A Potency (EC50)
Numbers only, in µM.

Answered cases to consult:
CHEMICAL STRUCTURE: c1ccc2c(NC3=NCCC3)cccc2c1
EC50 (µM): 0.061

CHEMICAL STRUCTURE: Cc1c(NC2=NCCC2)ccc2cccnc12
EC50 (µM): 0.006

CHEMICAL STRUCTURE: Cc1ccc2ccccc2c1NC1=NCCC1
EC50 (µM): 0.733

CHEMICAL STRUCTURE: Brc1c(NC2=NCCC2)ccc2[nH]cnc12
EC50 (µM): 0.003

CHEMICAL STRUCTURE: Brc1c(NC2=NCCC2)ccc2nccnc12
EC50 (µM): 1.07

Consider now this further compound.
Which EC50 is listed for "Cc1c(NC2=NCCC2)ccc2nccnc12" ?
0.121

* * *

Target: Alpha 2A (Homo sapiens)
Sequence (P08913 1-465): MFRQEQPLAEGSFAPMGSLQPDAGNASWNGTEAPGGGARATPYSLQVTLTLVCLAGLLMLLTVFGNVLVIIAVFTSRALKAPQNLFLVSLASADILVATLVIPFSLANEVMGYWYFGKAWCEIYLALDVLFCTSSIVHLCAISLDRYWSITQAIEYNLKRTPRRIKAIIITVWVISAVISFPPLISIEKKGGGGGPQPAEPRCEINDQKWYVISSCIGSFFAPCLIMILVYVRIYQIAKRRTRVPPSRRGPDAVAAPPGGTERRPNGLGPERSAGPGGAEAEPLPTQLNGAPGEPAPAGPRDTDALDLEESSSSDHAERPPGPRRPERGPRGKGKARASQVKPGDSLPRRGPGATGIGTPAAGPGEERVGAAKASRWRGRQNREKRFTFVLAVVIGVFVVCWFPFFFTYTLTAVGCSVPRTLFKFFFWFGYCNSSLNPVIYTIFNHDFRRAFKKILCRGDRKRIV
Assay: FLIPR assay, intracellular Ca2+ mobilization, alpha 2A
Conditions: agonist, read-out: Alpha 2A Potency (EC50)
MEASUREMENT NAME: EC50 (nM)
One number for each entry, in nM.

CHEMICAL STRUCTURE: Cc1c(/N=C2\CCCN2)cnc2[nH]ccc12
EC50, nM: 555

Report EC50 for every entry below.
1. Cc1c(NC2=NCCC2)ccc2c1NCCO2
2. Clc1c(NC2=NCCC2)ccc2[nH]cnc12

1. 583
2. 216

* * *

Task for the reader: assign each of the following molecules its reported EC50.
Target: Alpha 2C (Homo sapiens, UniProt P18825)
Sequence (P18825 1-462): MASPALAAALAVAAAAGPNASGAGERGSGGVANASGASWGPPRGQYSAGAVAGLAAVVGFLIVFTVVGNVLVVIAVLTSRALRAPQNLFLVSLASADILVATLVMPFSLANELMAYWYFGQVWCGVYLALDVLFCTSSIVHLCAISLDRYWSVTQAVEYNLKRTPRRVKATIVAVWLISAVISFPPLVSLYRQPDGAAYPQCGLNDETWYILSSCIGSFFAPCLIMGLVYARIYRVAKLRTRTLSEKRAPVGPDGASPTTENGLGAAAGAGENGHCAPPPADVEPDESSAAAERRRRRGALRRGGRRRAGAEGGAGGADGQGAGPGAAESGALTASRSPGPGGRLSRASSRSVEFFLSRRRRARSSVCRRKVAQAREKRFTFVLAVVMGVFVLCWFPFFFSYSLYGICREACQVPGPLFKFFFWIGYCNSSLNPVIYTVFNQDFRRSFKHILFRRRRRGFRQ
Assay: FLIPR assay, intracellular Ca2+ mobilization, alpha 2C
Details: agonist, read-out: Alpha 2C Potency (EC50)

CHEMICAL STRUCTURE: Brc1c(NC2=NCCC2)ccc2nccnc12
EC50: 1.05 µM

CHEMICAL STRUCTURE: c1ccc2c(NC3=NCCC3)cccc2c1
EC50: 0.005 µM

CHEMICAL STRUCTURE: Brc1c(NC2=NCCC2)ccc2scnc12
EC50: 0.025 µM

CHEMICAL STRUCTURE: c1cc2cc(NC3=NCCC3)ccc2o1
EC50: 0.63 µM

CHEMICAL STRUCTURE: c1cnc2cc(NC3=NCCC3)ccc2n1
EC50: 2.74 µM

Alright, here's another molecule for you.
Consider the molecule "Brc1cc(NC2=NCCC2)cc2cc[nH]c12" and give its measured EC50.
0.012 µM
